target under test: K562 (Homo sapiens)
test protocol: Antiproliferative activity against human K562 cells by MTT assay
Kindly supply the reported pIC50 values for the records listed here.
# pIC50 is unitless: minus log10 of the molar concentration; print number only

What value of measured pIC50 is listed for COc1ccc(Nc2cc(-c3ccc(C(=O)N4CCN(C(=O)c5cccc(C(F)(F)F)c5)CC4)cc3)ncn2)cc1 ?
4.28

For COc1ccc(Nc2cc(-c3ccc(C(=O)N4CCN(C(=O)c5ccc(Cl)cc5Cl)CC4)cc3)ncn2)cc1 then?
4.46

Repeat with COc1ccc(Nc2cc(-c3ccc(C(=O)N4CCN(C(=O)c5ccc(F)c(F)c5)CC4)cc3)ncn2)cc1
4.81

Measured values drawn from ChEMBL document CHEMBL3616476 for this set.
